Please go through the items and note down their IVIS.
- System: mice
- test description: In vivo delivery of FLuc-mRNA lipid nanoparticles in mice, in vivo imaging (IVIS)
- test conditions: Fluc-mRNA LNP; route IV; organ: body; formulation, molar ratio and N/P as in the table
Answer field: number only, no words.

## Task Tell me the measured IVIS of CCCCCCCC(CCCCCCC)OC(=O)CCCNC(=O)C(O)CN(CCCN(C)CCCN(CC(O)C(=O)NCCCC(=O)OC(CCCCCCC)CCCCCCC)CC(O)C(=O)NCCCC(=O)OC(CCCCCCC)CCCCCCC)CC(O)C(=O)NCCCC(=O)OC(CCCCCCC)CCCCCCC (centres unmarked) [Compound L0382] , please.
## Result 1.60E+09

## Task // IVIS lookup, key: CCCCCCC(CCCCCC)C(=O)OCCCCCCNC(=O)C(O)CN(CCN(C)CCN(CC(O)C(=O)NCCCCCCOC(=O)C(CCCCCC)CCCCCC)CC(O)C(=O)NCCCCCCOC(=O)C(CCCCCC)CCCCCC)CC(O)C(=O)NCCCCCCOC(=O)C(CCCCCC)CCCCCC (centres unmarked) [Compound L0359]
## Result 2.65E+08

## Task May I ask what IVIS has been recorded for CCCCCCCCCCOC(=O)CCCNC(=O)C(O)CN(CCN(C)CCN(CC(O)C(=O)NCCCC(=O)OCCCCCCCCCC)CC(O)C(=O)NCCCC(=O)OCCCCCCCCCC)CC(O)C(=O)NCCCC(=O)OCCCCCCCCCC (centres unmarked) [Compound L0386] ?
## Result 6.49E+07

## Task Any idea what IVIS was measured for CCCCCCCCN(C)C(=O)C(O)CN(CCN(C)CCN(CC(O)C(=O)N(C)CCCCCCCC)CC(O)C(=O)N(C)CCCCCCCC)CC(O)C(=O)N(C)CCCCCCCC (centres unmarked) [Compound L0352] ?
## Result 1.95E+06

## Task Value lookup for IVIS; key = CCCCCCC(CCCCCC)C(=O)OCCCCNC(=O)C(O)CN(CCCN(CC(O)C(=O)NCCCCOC(=O)C(CCCCCC)CCCCCC)CC(O)C(=O)NCCCCOC(=O)C(CCCCCC)CCCCCC)CCCN(CC(O)C(=O)NCCCCOC(=O)C(CCCCCC)CCCCCC)CC(O)C(=O)NCCCCOC(=O)C(CCCCCC)CCCCCC (centres unmarked) [Compound L0369]
## Result 1.22E+10

## Task What IVIS value was documented for this compound, CCCCCCC(CCCCCC)C(=O)OCCCCNC(=O)C(O)CN(CCN(C)CCN(CC(O)C(=O)NCCCCOC(=O)C(CCCCCC)CCCCCC)CC(O)C(=O)NCCCCOC(=O)C(CCCCCC)CCCCCC)CC(O)C(=O)NCCCCOC(=O)C(CCCCCC)CCCCCC (centres unmarked) [Compound L0368] ?
## Result 6.34E+07

## Task I'd like to know its IVIS. The compound in question is CCCCCCCCCCN(C)C(=O)C(O)CN(CCCN(CC(O)C(=O)N(C)CCCCCCCCCC)CC(O)C(=O)N(C)CCCCCCCCCC)CCCN(CC(O)C(=O)N(C)CCCCCCCCCC)CC(O)C(=O)N(C)CCCCCCCCCC (centres unmarked) [Compound L0353]
## Result 1.21E+08

## Task Would you mind telling me what IVIS value was observed for CCCCCCCCC(CCCCCC)C(=O)OCCCCCCNC(=O)C(O)CN(CCCN(C)CCCN(CC(O)C(=O)NCCCCCCOC(=O)C(CCCCCC)CCCCCCCC)CC(O)C(=O)NCCCCCCOC(=O)C(CCCCCC)CCCCCCCC)CC(O)C(=O)NCCCCCCOC(=O)C(CCCCCC)CCCCCCCC (centres unmarked) [Compound L0370] ?
## Result 1.43E+07

## Task Any idea what its IVIS is? The compound is CCCCCCCCN(C)C(=O)C(O)CN(CCCN(CC(O)C(=O)N(C)CCCCCCCC)CC(O)C(=O)N(C)CCCCCCCC)CCCN(CC(O)C(=O)N(C)CCCCCCCC)CC(O)C(=O)N(C)CCCCCCCC (centres unmarked) [Compound L0354]
## Result 1.35E+08

## Task Can you look up the measured IVIS of CCCCCCCCC(CCCCCC)C(=O)OCCCCCCNC(=O)C(O)CN(CCN(C)CCN(CC(O)C(=O)NCCCCCCOC(=O)C(CCCCCC)CCCCCCCC)CC(O)C(=O)NCCCCCCOC(=O)C(CCCCCC)CCCCCCCC)CC(O)C(=O)NCCCCCCOC(=O)C(CCCCCC)CCCCCCCC (centres unmarked) [Compound L0371] for me?
## Result 1.98E+07

## Task I am curious: what IVIS value has been reported for CCCCCCC(CCCCCC)C(=O)NCCOC(=O)C(O)CN(CCCN(CC(O)C(=O)OCCNC(=O)C(CCCCCC)CCCCCC)CC(O)C(=O)OCCNC(=O)C(CCCCCC)CCCCCC)CCCN(CC(O)C(=O)OCCNC(=O)C(CCCCCC)CCCCCC)CC(O)C(=O)OCCNC(=O)C(CCCCCC)CCCCCC (centres unmarked) [Compound L0363] ?
## Result 6.16E+09

## Task Which IVIS is listed for CCCCCCCCCCCCNC(=O)C(CN(CCCN(C)CCCN(CC(OC(C)=O)C(=O)NCCCCCCCCCCCC)CC(OC(C)=O)C(=O)NCCCCCCCCCCCC)CC(OC(C)=O)C(=O)NCCCCCCCCCCCC)OC(C)=O (centres unmarked) [Compound L0388] ?
## Result 1.49E+08

## Task What measured IVIS goes with CCCCCCC(CCCCCC)C(=O)NCCOC(=O)C(O)CN(CCCN(C)CCCN(CC(O)C(=O)OCCNC(=O)C(CCCCCC)CCCCCC)CC(O)C(=O)OCCNC(=O)C(CCCCCC)CCCCCC)CC(O)C(=O)OCCNC(=O)C(CCCCCC)CCCCCC (centres unmarked) [Compound L0361] ?
## Result 4.99E+07

## Task Sample CCCCCCCCC(CCCCCC)C(=O)NCCOC(=O)C(O)CN(CCCN(C)CCCN(CC(O)C(=O)OCCNC(=O)C(CCCCCC)CCCCCCCC)CC(O)C(=O)OCCNC(=O)C(CCCCCC)CCCCCCCC)CC(O)C(=O)OCCNC(=O)C(CCCCCC)CCCCCCCC (centres unmarked) [Compound L0373] — what was its IVIS?
## Result 7.79E+07

## Task What IVIS value was documented for this compound, CCCCCCCC(CCCCCCC)OC(=O)CCCNC(=O)C(O)CN(CCCN(CC(O)C(=O)NCCCC(=O)OC(CCCCCCC)CCCCCCC)CC(O)C(=O)NCCCC(=O)OC(CCCCCCC)CCCCCCC)CCCN(CC(O)C(=O)NCCCC(=O)OC(CCCCCCC)CCCCCCC)CC(O)C(=O)NCCCC(=O)OC(CCCCCCC)CCCCCCC (centres unmarked) [Compound L0384] ?
## Result 4.54E+08

## Task Bench note: what IVIS did CCCCCCCCC(CCCCCC)C(=O)OCCCCNC(=O)C(O)CN(CCCN(CC(O)C(=O)NCCCCOC(=O)C(CCCCCC)CCCCCCCC)CC(O)C(=O)NCCCCOC(=O)C(CCCCCC)CCCCCCCC)CCCN(CC(O)C(=O)NCCCCOC(=O)C(CCCCCC)CCCCCCCC)CC(O)C(=O)NCCCCOC(=O)C(CCCCCC)CCCCCCCC (centres unmarked) [Compound L0378] show?
## Result 2.77E+08

## Task # lookup: IVIS of CCCCCCC(CCCCC)C(=O)OCCCCNC(=O)C(O)CN(CCCN(C)CCCCN(CCC(O)C(=O)NCCOC(=O)C(CCCCCC)CCCCCC)C(O)C(=O)NCCCCOC(=O)C(CCCCCC)CCCCCC)CC(O)C(=O)NCCCCOC(=O)C(CCCCC)CCCCCC (centres unmarked) [Compound L0367]
## Result 4.05E+07
